target.of.assay: canine IL-4RA (construct not given) (canine)
assay.procedure: SPR, combinatorial Fab-SASA clone
Reported kon by item:
Please give a number only; it is taken to be in M⁻¹ s⁻¹.

Examples with their reported kon follow.
AHF21195 (Fab, V domains shown, not shown: small tags and cut ends) VH: EVQLVESGGDLVKPGGSLRLSCVASGFTFRDYAMTWVRQAPGKGLQWVSLINGSGGKTYYADAVKGRFTISRDNAKNTLYLQMNSLRAEDTAVYYCAVDRKTKTIRPQYYGLWVWGQGTLVTVSS VL: DIVMTQTPLSLSVSPGETASISCRSSQSLLYSIGYNYLDWYLQKPGQSPQGLIYLGSKRASGVPDRFSGSGSGTDFTLRISRVEANDTGVYYCMQGLQSPLSFGQGTKLEIKR    193000
AHF21180 (Fab, V domains shown, not shown: small tags and cut ends) VH: EVQLVESGGDLVKPGGSLRLSCVASGFTFRDYAMTWVRQAPGKGLQWVSLINGSGGKTYYADAVKGRFTISRDNAKNTLYLQMNSLRAEDTAVYYCAVDRKTKTIRPQYYGLWHWGQGTLVTVSS VL: DIVMTQTPLSLSVSPGETASISCRSSQSLTYSIGYNYLDWYLQKPGQSPQGLIYLGSKRASGVPDRFSGSGSGTDFTLRISRVEANDTGVYYCMQPLQSPLTFGQGTKLEIKR    219000
AHF21176 (Fab, V domains shown, not shown: small tags and cut ends) VH: EVQLVESGGDLVKPGGSLRLSCVASGFTFRDYAMTWVRQAPGKGLQWVSLINGSGGKTYYADAVKGRFTISRDNAKNTLYLQMNSLRAEDTAVYYCAVDRKTKTIRPQYYGLWHWGQGTLVTVSS VL: DIVMTQTPLSLSVSPGETASISCRSSQSLTYSIGYNYLDWYLQKPGQSPQGLIYLGHKRASGVPDRFSGSGSGTDFTLRISRVEANDTGVYYCMQGLQSPLGFGQGTKLEIKR    295000

Lookup result for AHF21171 (Fab, V domains shown, not shown: small tags and cut ends) VH: EVQLVESGGDLVKPGGSLRLSCVASGFTFRDYAMTWVRQAPGKGLQWVSLINGSGGKTYYADAVKGRFTISRDNAKNTLYLQMNSLRAEDTAVYYCAVDRLTKTIRPQYYGLWHWGQGTLVTVSS VL: DIVMTQTPLSLSVSPGETASISCRSSQSLLYSIGYNYLDWYLQKPGQSPQGLIYLGHKRASGVPDRFSGSGSGTDFTLRISRVEANDTGVYYCMQGLQSPLSFGQGTKLEIKR ; measured kon: 285000

For this binder ( AHF21178 (Fab, V domains shown, not shown: small tags and cut ends) VH: EVQLVESGGDLVKPGGSLRLSCVASGFTFRDYAMTWVRQAPGKGLQWVSLINGSGGKTYYADAVKGRFTISRDNAKNTLYLQMNSLRAEDTAVYYCAVDRLTKTIRPQYYGLWVWGQGTLVTVSS VL: DIVMTQTPLSLSVSPGETASISCRSSQSLTYSIGYNYLDWYLQKPGQSPQGLIYLGSKRASGVPDRFSGSGSGTDFTLRISRVEANDTGVYYCMQGLQSPLSFGQGTKLEIKR ), measured kon is 178000

Per the record, AHF21188 (Fab, V domains shown, not shown: small tags and cut ends) VH: EVQLVESGGDLVKPGGSLRLSCVASGFTFRDYAMTWVRQAPGKGLQWVSLISGSGGKTYYADAVKGRFTISRDNAKNTLYLQMNSLRAEDTAVYYCAVDRLTKTIRPQYYGLWHWGQGTLVTVSS VL: DIVMTQTPLSLSVSPGETASISCRSSQSLTYSIGYNYLDWYLQKPGQSPQGLIYLGSKRASGVPDRFSGSGSGTDFTLRISRVEANDTGVYYCMQGLQSPLGFGQGTKLEIKR has kon of 325000

For reference, reported kon for AHF21182 (Fab, V domains shown, not shown: small tags and cut ends) VH: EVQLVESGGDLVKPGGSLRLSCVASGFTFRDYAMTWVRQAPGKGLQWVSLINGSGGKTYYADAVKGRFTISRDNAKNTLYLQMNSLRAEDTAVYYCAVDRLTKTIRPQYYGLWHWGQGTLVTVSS VL: DIVMTQTPLSLSVSPGETASISCRSSQSLTYSIGYNYLDWYLQKPGQSPQGLIYLGHKRASGVPDRFSGSGSGTDFTLRISRVEANDTGVYYCMQGLQSPLLFGQGTKLEIKR stands at 286000
